Data provenance is ChEMBL document CHEMBL3988442.

system: Wolbachia pipientis; experiment: Anti-Wolbachia Cell-Based Screen; assay type: functional; set-up: scale not given: in the data most compounds retested in dose-response had high values; conditions: 5 µM
Screen size: about 48,000 compounds; about 13,000 (27%) showed an effect of 50% or more. The list shows a part of the results.
Label T when Percent Effect is strictly below 10%; otherwise label F.

Input line: In plain terms, does CCc1nc(C2CCCN(c3ncccn3)C2)no1 (centres undefined) come in under 10% for Percent Effect?
Output line: F

Input line: Confirm or reject: Percent Effect of `Cc1nccn1CCC1CCN(c2ccncn2)CC1` lies strictly below 10%
Output line: T

Input line: Here's an entry: `CCn1ncc(-c2cc(C(F)F)n3nc(CCC(=O)O)nc3n2)c1C` . Is its Percent Effect below 10%?
Output line: F

Input line: Please indicate whether the reported Percent Effect of O=C(Cc1c[nH]c(=O)[nH]c1=O)N1CCCCC1CCc1cccc(O)c1 (centres undefined) is strictly below 10%.
Output line: T

Input line: Please check: Percent Effect for COCC(C)N(C)C(=O)NC1CCN(S(C)(=O)=O)CC1 (centres undefined) , strictly under 10% or not?
Output line: T

Input line: In the record for CN(CCC(=O)N1CCCC(Cc2cccnc2)C1)Cc1cccnc1 (centres undefined) , is Percent Effect less than 10%?
Output line: F

Input line: Strictly below 10%: is that where Percent Effect of `NC(=O)CN1CCCN(C(=O)c2ccn(-c3ccc(F)cc3)n2)CC1` sits?
Output line: T

Input line: Answer whether the compound `CC(C)CN1CCc2[nH]cnc2C12CCN(C(=O)c1cccnc1)CC2` has Percent Effect strictly less than 10%
Output line: T

Input line: Find out if reported Percent Effect for CN(Cc1cccc(F)c1)C(=O)CN1CCCC1CCc1ccccc1 (centres undefined) is less than 10%
Output line: T

Input line: Would you kindly verify if Percent Effect of `O=C(c1cscn1)N(CCCO)S(=O)(=O)c1cccs1` is strictly less than 10%?
Output line: T

Input line: Lab log: compare recorded Percent Effect with 10%; is it strictly lower for Cc1cc(C)nc(C2CCN(c3ccncn3)C2)n1 (centres undefined) ?
Output line: F

Input line: State whether 10% exceeds Percent Effect recorded for `NC(=O)CN1CCCN(C(=O)c2ccc(SC(F)F)cc2)CC1` .
Output line: F

Input line: Here's an entry: `CCc1nnc(Nc2cccc(C3CCN(CCO)CC3)n2)s1` . Is its Percent Effect below 10%?
Output line: T

Input line: Quick check: Percent Effect of O=C(NCCc1cccc(O)c1)NC1CCN(c2ccccc2)C1=O (centres undefined) under 10%?
Output line: T

Input line: Identify whether the compound Cc1oc(-c2ccoc2)nc1CN1CCCCC1CCc1ccccc1 (centres undefined) records Percent Effect below 10%.
Output line: T

Input line: Threshold test, Percent Effect < 10%: `CCc1cc(N2CCN(c3cnccn3)CC2)n2nc(C)c(C)c2n1`
Output line: T

Input line: Threshold test, Percent Effect < 10%: O=C1CCCN1CCCC(=O)N1CCCC(Cc2cccnc2)C1 (centres undefined)
Output line: F

Input line: Determine whether this compound shows Percent Effect lower than 10% (ties excluded): Cc1ccc(C2CSCCN2C(=O)C2=CCCC2)o1 (centres undefined)
Output line: T

Input line: Lab note: Percent Effect threshold 10%. Does this compound come in strictly under it? `O=C(NCCN1CCC(c2cccs2)CC1)Nc1cccs1`
Output line: T

Input line: Please determine if COc1cc(N2CCCC(c3nccn3Cc3ccncc3)C2)ncn1 (centres undefined) is below 10% in terms of Percent Effect.
Output line: F

Input line: Answer whether the compound COc1nc2c(cc1C(=O)N1CCCOC(CN3CCCC3)C1)CCC2 (centres undefined) has Percent Effect strictly less than 10%
Output line: T

Input line: Is the reported Percent Effect for CC(C)OCCOCC(O)CN(C)C(=O)Nc1ccc(F)cc1Cl (centres undefined) strictly below 10%?
Output line: T

Input line: Threshold test, Percent Effect < 10%: `Cc1ccccc1N1CCCN(c2ccncn2)CC1`
Output line: T

Input line: Say whether its Percent Effect is strictly beneath 10%. Entry: `O=C(NCCc1ccccc1)NCCN1CCC(c2cccs2)CC1`
Output line: F

Input line: For `COc1ccc(CCC(=O)NCCN2CCC(c3cccs3)CC2)cc1` , is the recorded Percent Effect below the cut-off of 10%?
Output line: F

Input line: Field: below-cutoff. Rule: recorded Percent Effect strictly less than 10%. Subject: `CCSCc1ccc(C(=O)N2CCCN(CC(N)=O)CC2)cc1`
Output line: F

Input line: Strictly below 10% in Percent Effect? `CC(=O)N1CCCN(CCCSCc2ccccc2)CC1`
Output line: T

Input line: Hi there! Is Percent Effect for O=C(CCn1nnc2ccccc2c1=O)N(CC1CCOC1)C1CC1 (centres undefined) below 10%, do you know?
Output line: T

Input line: # TODO verify Percent Effect < 10% strictly for this compound: O=C(c1ccc(C2CCCN2)s1)N1CCC2(CCCO2)CC1 (centres undefined)
Output line: F

Input line: I'd appreciate it if you could check whether CN(C)CCn1ccnc1C1CCCN(C(=O)CCc2cccnc2)C1 (centres undefined) has Percent Effect smaller than 10%.
Output line: T

Input line: Confirm or reject: Percent Effect of COc1ccc(CNC(=O)CCN2CCOC(C(F)(F)F)C2)cc1 (centres undefined) lies strictly below 10%
Output line: T

Input line: Regarding Cc1ccn(CCC(=O)N2CCCC(Cc3cccnc3)C2)n1 (centres undefined) , kindly confirm whether its Percent Effect is beneath 10%.
Output line: F

Input line: A record lists CCc1nnc(Nc2cc(C)nc(C3CCN(c4cnccn4)C3)n2)s1 (centres undefined) . Is its Percent Effect below 10%?
Output line: F

Input line: Below 10% on Percent Effect? Entry CCc1nnsc1C(=O)N1CCOC(c2nc(C)n[nH]2)C1 (centres undefined)
Output line: F

Input line: Lab note: confirm whether the reported Percent Effect for this compound is below 10%, equality not counting. compound: CCOc1ccccc1-c1noc(CN2CCOC(CN(C)C)C2)n1 (centres undefined)
Output line: T

Input line: Is Percent Effect of O=C(c1coc2ccccc12)N1CCCC(O)(CO)CC1 (centres undefined) strictly below 10%?
Output line: T

Input line: Take the compound `CCN1CCCN(C(=O)c2cnc(OC(C)C)c(Cl)c2)CC1` and say whether its Percent Effect is less than 10%.
Output line: F

Input line: Report whether reported Percent Effect is lower than 10% (strictly) for CCc1nnc(Nc2cc(C)nc(C3CCN(c4ccncn4)C3)n2)s1 (centres undefined)
Output line: F

Input line: Determine if `CCCS(=O)(=O)NCc1cccnc1OCc1ccccc1` shows Percent Effect strictly lower than 10%.
Output line: T

Input line: Find out if reported Percent Effect for `Cc1cc(Br)oc1C(=O)N1CCCN(CC(N)=O)CC1` is less than 10%
Output line: T

Input line: Consider O=C(O)c1cccnc1CN1CCCCC1CCc1cccs1 (centres undefined) . Does its Percent Effect lie strictly below 10%?
Output line: F

Input line: Report whether reported Percent Effect is lower than 10% (strictly) for O=C(O)c1cccnc1CN1CCCC1CCc1ccccc1 (centres undefined)
Output line: F

Input line: Given O=C1CC(NCc2cnc(C3CCCCC3)nc2)CN1c1ccccc1 (centres undefined) , is recorded Percent Effect strictly lower than 10%?
Output line: T

Input line: Percent Effect under 10%? Item: CCc1nnc(Nc2cc(C)nc(C3CCN(c4ncccn4)C3)n2)s1 (centres undefined)
Output line: F

Input line: Criterion: Percent Effect strictly below 10%. Is it met by Cc1c[nH]c(CN2CCCCC2CCc2cccc(O)c2)c(C)c1=O (centres undefined) ?
Output line: F

Input line: Please determine if CC(C)CC(N)C1=N/C(=C2\N=CN=N2)NO1 (centres undefined) is below 10% in terms of Percent Effect.
Output line: T

Input line: Percent Effect strictly < 10% for this compound? `COc1ccc(CCNC(=O)CN2CCOCS2(=O)=O)cc1`
Output line: T

Input line: Lab note: confirm whether the reported Percent Effect for this compound is below 10%, equality not counting. compound: CCc1n[nH]c(C2CN(C(=O)c3ncoc3CC)CCO2)n1 (centres undefined)
Output line: F

Input line: Dear reviewer, please state whether Cc1ccnc(CC(C)N(C)c2cc(CN)nc(C)n2)c1 (centres undefined) has Percent Effect strictly beneath 10%.
Output line: T
